Answer each item with its documented pKi.
# TEST TARGET: hDRD2 (Homo sapiens, UniProt P14416)
# Sequence (P14416 whole entry): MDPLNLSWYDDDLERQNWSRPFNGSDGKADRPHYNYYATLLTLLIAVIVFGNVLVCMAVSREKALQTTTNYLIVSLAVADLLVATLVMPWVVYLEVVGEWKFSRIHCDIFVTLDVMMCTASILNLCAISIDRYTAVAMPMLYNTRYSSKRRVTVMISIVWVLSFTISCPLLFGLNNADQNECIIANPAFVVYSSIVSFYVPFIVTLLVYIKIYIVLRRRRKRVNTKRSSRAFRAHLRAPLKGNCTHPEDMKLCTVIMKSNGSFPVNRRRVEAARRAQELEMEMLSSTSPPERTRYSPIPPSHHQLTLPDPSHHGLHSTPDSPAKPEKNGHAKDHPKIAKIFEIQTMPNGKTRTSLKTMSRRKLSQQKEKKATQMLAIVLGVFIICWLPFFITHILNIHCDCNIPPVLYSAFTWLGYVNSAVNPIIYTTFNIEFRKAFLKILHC
# PROCEDURE SUMMARY: biochemical
# Assay type: binding
# Set-up: expressed in transfected cells; host or cells: CHO-K1, pcDNA3.1/GS, zeocin-selected clonal line; membranes
Scale note: pKi = -log10(concentration in M).

Reported pKi for C[C@@H](O)[C@@H]1NC(=O)[C@H](CCCCN)NC(=O)[C@@H](Cc2c[nH]c3ccccc23)NC(=O)[C@H](Cc2ccccc2)NC(=O)[C@H](Cc2ccccc2)NC(=O)[C@H](CCCNC(=N)N)NC(=O)[C@H](NCCSC[C@@H]2C[C@@H]3c4cccc5[nH]cc(c45)C[C@H]3N(C)C2)CCCCNC(=O)[C@H](Cc2cccc(F)c2)NC1=O was 7.52

Form field pKi, entry C[C@@H](O)[C@@H]1NC(=O)[C@H](CCCCN)NC(=O)[C@@H](Cc2c[nH]c3ccccc23)NC(=O)[C@H](Cc2ccccc2)NC(=O)[C@H](Cc2ccccc2)NC(=O)[C@H](CCCNC(=N)N)NC(=O)[C@H](NCCS(=O)(=O)C[C@@H]2C[C@@H]3c4cccc5[nH]cc(c45)C[C@H]3N(C)C2)CCCCNC(=O)[C@H](Cc2ccc(F)cc2)NC1=O : 7.25

Value of measured pKi for the entry C[C@@H](O)[C@@H]1NC(=O)[C@H](CCCCN)NC(=O)[C@@H](Cc2c[nH]c3ccccc23)NC(=O)[C@H](Cc2ccccc2)NC(=O)[C@H](Cc2ccccc2)NC(=O)[C@H](CCCNC(=N)N)NC(=O)[C@H](NC[C@H](Cc2ccc(O)cc2)NC(=O)CSC[C@@H]2C[C@@H]3c4cccc5[nH]cc(c45)C[C@H]3N(C)C2)CCCCNC(=O)[C@H](Cc2ccccc2)NC1=O : 7.36

The reported pKi of the compound C[C@@H](O)[C@@H]1NC(=O)[C@H](CCCCN)NC(=O)[C@@H](Cc2c[nH]c3ccccc23)NC(=O)[C@H](Cc2ccccc2)NC(=O)[C@H](Cc2ccccc2)NC(=O)[C@H](CCCNC(=N)N)NC(=O)[C@H](NCCSC[C@@H]2C[C@@H]3c4cccc5[nH]cc(c45)C[C@H]3N(C)C2)CCCCNC(=O)[C@H](Cc2cc(F)cc(F)c2)NC1=O was 7.60

Entry under test: CC(=O)N(CCCN[C@@H]1CCCCNC(=O)[C@H](Cc2ccc(F)cc2)NC(=O)[C@H]([C@@H](C)O)NC(=O)[C@H](CCCCN)NC(=O)[C@@H](Cc2c[nH]c3ccccc23)NC(=O)[C@H](Cc2ccccc2)NC(=O)[C@H](Cc2ccccc2)NC(=O)[C@H](CCCNC(=N)N)NC1=O)C[C@@H]1C[C@@H]2c3cccc4[nH]cc(c34)C[C@H]2N(C)C1 [Compound 29A] . Its pKi was 7.33
